tested on: Mus musculus; assay: Toxicity in mouse Sarcoma 180 cells allografted CD-1 mouse assessed as change in body weight at 40 mg/kg, ip qd for 6 consecutive days starting 24 hrs post implantation (reference value: +13.5 %); format: organism-based; parameters: dose 40 mg/kg, route intraperitoneal; conditions: in vivo
Parameter Measured: Activity (%)
Reply numerically in %, unit not repeated.

Query: Give the reported Activity for this compound. COc1ccc(S(=O)(=O)N/N=C/c2ccnc[n+]2[O-])cc1
Reply: 20.3

Query: Answer with the recorded Activity of Cc1ccc(S(=O)(=O)N/N=C/c2cccn[n+]2[O-])cc1 only.
Reply: -0.2

Query: Indicate its recorded Activity; the compound in question is O=S(=O)(N/N=C/c1cccc[n+]1[O-])c1ccccc1
Reply: -2.6

Query: Report Activity for O=S(=O)(N/N=C/c1cccn[n+]1[O-])c1ccccc1
Reply: -2.9

Query: Give a short answer stating reported Activity for O=S(=O)(N/N=C/c1ccnc[n+]1[O-])c1ccccc1 .
Reply: 16.3

Query: Give a short answer stating reported Activity for COc1ccc(S(=O)(=O)N/N=C/c2cccn[n+]2[O-])cc1 .
Reply: -1.6

Query: Please give measured Activity of the following entry: Cc1ccc(S(=O)(=O)N/N=C/c2ccnc[n+]2[O-])cc1
Reply: 19.6

* * *

tested on: Mus musculus; experiment: Toxicity in mouse Sarcoma 180 cells allografted CD-1 mouse assessed as change in body weight at 60 mg/kg, ip qd for 6 consecutive days starting 24 hrs post implantation (reference value: +13.5 %); type: organism-based; parameters: dose 60 mg/kg, route intraperitoneal; details: in vivo
Parameter Measured: Activity (%)
Write it as a number; the unit % goes unstated.

Query: Input COc1ccc(S(=O)(=O)N/N=C/c2cccn[n+]2[O-])cc1 , output reported Activity.
Reply: -3.2

Query: Please give the documented Activity of O=S(=O)(N/N=C/c1cccn[n+]1[O-])c1ccccc1
Reply: -3.8

Query: Provide one value: measured Activity of COc1ccc(S(=O)(=O)N/N=C/c2ccnc[n+]2[O-])cc1
Reply: 10.8

Query: Please give the documented Activity of Cc1ccc(S(=O)(=O)N/N=C/c2cccn[n+]2[O-])cc1
Reply: -3.2

Query: In one line, give reported Activity of the entry Cc1ccc(S(=O)(=O)N/N=C/c2ccnc[n+]2[O-])cc1 .
Reply: 16.5

Query: Output Activity of O=S(=O)(N/N=C/c1ccnc[n+]1[O-])c1ccccc1
Reply: 11.2
